This collection of values is drawn from patent US20100004431A1.

# studySystem: T1, CD25 (R&D systems cat. #223-2A/CF) (UniProt P01589 22-213, limits assumed)
# T1 construct: Bought soluble protein
# T1 sequence (looked up): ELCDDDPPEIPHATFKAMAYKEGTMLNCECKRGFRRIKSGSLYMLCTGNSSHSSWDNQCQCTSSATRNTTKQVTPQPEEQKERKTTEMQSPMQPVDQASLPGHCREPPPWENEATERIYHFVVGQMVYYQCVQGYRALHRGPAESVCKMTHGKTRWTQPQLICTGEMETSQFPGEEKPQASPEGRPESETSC
# assayOverview: Biacore (SPR); antibody captured on Protein A, CD25 injected
measuredAttribute: koff (s⁻¹)
Reply numerically in s⁻¹, unit not repeated.

• anti-CD25 H0L0 (antibody, V domains shown, Chimeric form of the anti-TAC antibody, in IgG1 format; also called chimeric anti-CD25 H0L0; anti-TAC H0L0) VH: QVQLQQSGAELAKPGASVKMSCKASGYTFTSYRMHWVKQRPGQGLEWIGYINPSTGYTEYNQKFKDKATLTADKSSSTAYMQLSSLTFEDSAVYYCARGGGVFDYWGQGTTLTVSS VL: QIVLTQSPAIMSASPGEKVTITCSASSSISYMHWFQQKPGTSPKLWIYTTSNLASGVPARFSGSGSGTSYSLTISRMEAEDAATYYCHQRSTYPLTFGSGTKLELK = 0.00018
• anti-CD25 H1L1.43 (antibody, V domains shown, also called VL combination variant L1.43 paired with H1) VH: QVQLVQSGAEVKKPGASVKVSCKASGYTFTSYRMHWVRQAPGQGLEWMGYINPSTGYTEYNQKFQGRVTITADKSISTAYMELSRLRSDDTAVYYCARGGGVFDYWGQGTLVTVSS VL: EIVLTQSPATLSLSPGERATLSCRASQSVSYLHWYQQKPGQAPRLLIYTTSNRATGIPARFSGSGSGTDYTLTISSLQPEDFAVYYCHQRSTYPLTFGSGTKLEIK = 0.00053
• anti-CD25 H1.22L1.20 (antibody, V domains shown) VH: QVQLVQSGAEVKKPGASVKVSCKASGYTFTSYRMHWVRQAPGQGLEWMGWINPNSGGTNYAQKFQGRVTITRDTSISTAYMELSRLRSDDTAVYYCARGGGVFDYWGQGTLVTVSS VL: EIVLTQSPATLSLSPGERATLSCRASQSVSYLHWYQQKPGQAPRLLIYTTSNRATGIPARFSGSGSGTDFTLTISSLEPEDFAVYYCHQRSTYPLTFGSGTKLEIK = 0.00018

Record summary for anti-CD25 H1L1.56 (antibody, V domains shown, the fourth VL chain; also called VL combination variant L1.56 paired with H1) VH: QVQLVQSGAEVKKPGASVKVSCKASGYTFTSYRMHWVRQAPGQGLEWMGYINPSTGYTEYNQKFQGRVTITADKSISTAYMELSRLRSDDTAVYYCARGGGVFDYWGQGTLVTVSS VL: QIVLTQSPATLSLSPGERATLSCRASQSVSYLHWFQQKPGQSPQLLIYTTSNRATGIPARFSGSGSGTDFTLTISSLEPEDFAVYYCHQRSTYPLTFGSGTKLEIK : reported koff = 0.0007

Record summary for anti-CD25 H1.22L1 (antibody, IgG1, V domains shown, IgG1 format) VH: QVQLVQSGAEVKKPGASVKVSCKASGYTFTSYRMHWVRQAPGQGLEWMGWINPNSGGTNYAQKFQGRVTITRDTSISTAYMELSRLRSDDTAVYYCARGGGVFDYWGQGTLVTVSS VL: QIVLTQSPATLSLSPGERATLSCRASSSISYMHWFQQKPGQSPQLLIYTTSNLASGVPARFSGSGSGTDYTLTISSLQPEDFAVYYCHQRSTYPLTFGSGTKLEIK : reported koff = 0.00017
